Every entry's value here was drawn from patent US12042520B2.

# protocol.notes: Curcumin plasma concentration after intravenous administration in the pig (for comparison)
# Type: in vivo
# experimental.setup: plasma, 0.6 grams for 23 kg of live weight, 0.60 grams for 23 kg, 48 hours
observed.property: concentration at 48 hours (ng/mL)
Provide the reading as a plain figure in ng/mL.

[in] Give concentration at 48 hours for the following compound: COc1cc(/C=C/C(=O)CC(=O)/C=C/c2ccc(O)c(OC)c2)ccc1O
[out] 537

---

# protocol.notes: Curcumin plasma concentration after intravenous administration in the pig (for comparison)
# Type: in vivo
# experimental.setup: plasma, 0.6 grams for 23 kg of live weight, 0.60 grams for 23 kg, 3 hours
observed.property: concentration at 3 hours (µg/mL)
Quick reminder: number only, in µg/mL, skip the unit.

[in] Give concentration at 3 hours for the following compound: COc1cc(/C=C/C(=O)CC(=O)/C=C/c2ccc(O)c(OC)c2)ccc1O
[out] 0.537
